The entries below come with measured pKi values attached.
# system: human PDE10A2 (Homo sapiens (Human), UniProt Q9Y233)
# Sequence (Q9Y233 267-1055): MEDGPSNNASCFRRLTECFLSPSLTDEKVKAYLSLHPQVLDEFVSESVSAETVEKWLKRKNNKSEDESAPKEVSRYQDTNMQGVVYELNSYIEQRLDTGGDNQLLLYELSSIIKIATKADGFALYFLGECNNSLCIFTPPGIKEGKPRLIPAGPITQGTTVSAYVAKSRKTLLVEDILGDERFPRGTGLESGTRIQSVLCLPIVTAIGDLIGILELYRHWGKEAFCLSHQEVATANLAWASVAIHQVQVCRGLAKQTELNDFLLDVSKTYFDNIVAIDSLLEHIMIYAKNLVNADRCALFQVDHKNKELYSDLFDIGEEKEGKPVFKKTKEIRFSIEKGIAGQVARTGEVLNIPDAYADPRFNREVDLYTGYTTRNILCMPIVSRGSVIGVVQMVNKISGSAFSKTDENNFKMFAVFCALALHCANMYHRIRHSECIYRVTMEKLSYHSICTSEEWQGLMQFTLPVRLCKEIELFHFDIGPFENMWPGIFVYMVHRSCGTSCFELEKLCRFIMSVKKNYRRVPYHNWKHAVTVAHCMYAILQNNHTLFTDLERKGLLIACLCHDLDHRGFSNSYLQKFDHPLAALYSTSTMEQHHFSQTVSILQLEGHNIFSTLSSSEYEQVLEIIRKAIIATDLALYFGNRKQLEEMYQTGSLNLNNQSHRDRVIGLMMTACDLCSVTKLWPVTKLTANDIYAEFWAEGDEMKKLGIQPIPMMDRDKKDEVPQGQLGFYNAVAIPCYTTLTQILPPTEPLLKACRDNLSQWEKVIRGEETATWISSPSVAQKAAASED
# procedure_text: PDE10 fluorescence polarization (IMAP FP) inhibition assay
# Type: biochemical
# conditions: read-out: PDE10a Ki
pKi: −log10 of the molar value.

# compound, pKi
rows = [
    ("Cc1nc(C(C)O)n(-c2cc(N3CC(c4nc5ccccc5n4C)C3)nc(C3CC3)n2)n1 (single isomer, unassigned) [Example 10b]", 9.41),
    ("Cc1nc(N2CC(c3nc4ccccc4n3C)C2)cc(-n2nc(C)nc2C(O)CC(F)(F)F)n1 (single isomer, unassigned) [Example 7b]", 8.60),
    ("CCC(O)c1nc(C)nn1-c1cc(N2CC(c3nc4ccccc4n3C)C2)nc(C)n1 (single isomer, unassigned) [Example 4b]", 9.39),
]
